# Target Or Test System: MERS-CoV spike protein (EMC/2012), wt (MERS-CoV (isolate EMC/2012), UniProt K9N5Q8 18-1353)
# Assay Summary: cell-based or functional assay
Endpoint Label: IC50 against MERSpp

H2bM15292N (antibody, V domains shown) VH: QVQLVQSGAEVKKPGSSVKVSCKASGGTFNNYAISWVRQAPGQGLEWMGGIIPFFGTTNYAQKFQDRVTITSDDSTITAYMELSRLRSEDTAVYYCARDEPRRDGYNYYHYYYMDVWGQGTTVTVSS VL: DIQMTQSPSSLSASVGDRVTITCRASQSINSYLNWYQQKPGKAPNLLIYAASSLQSGVPSRFSGSGSGTDFTLTISSLHPEDFATYYCQQSYSTPPITFGQGTRLEIK    0.113 nM

input: Specify reported IC50 against MERSpp for the binder shown: H2aM15287N (antibody, V domains shown) VH: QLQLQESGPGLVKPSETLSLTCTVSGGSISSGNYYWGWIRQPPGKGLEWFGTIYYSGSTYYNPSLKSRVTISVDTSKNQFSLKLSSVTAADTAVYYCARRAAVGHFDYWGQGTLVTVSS VL: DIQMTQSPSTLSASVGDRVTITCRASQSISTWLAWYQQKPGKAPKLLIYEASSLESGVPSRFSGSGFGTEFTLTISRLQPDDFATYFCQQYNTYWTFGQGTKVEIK
output: 2.93 nM

input: Specify reported IC50 against MERSpp for the binder shown: H1M15289N (antibody, V domains shown) VH: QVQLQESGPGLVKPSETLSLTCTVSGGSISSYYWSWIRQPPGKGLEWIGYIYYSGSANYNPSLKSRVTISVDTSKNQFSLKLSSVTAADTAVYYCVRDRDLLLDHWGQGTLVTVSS VL: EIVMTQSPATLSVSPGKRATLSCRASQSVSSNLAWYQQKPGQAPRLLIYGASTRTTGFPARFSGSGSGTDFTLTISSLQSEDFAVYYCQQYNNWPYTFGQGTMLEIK
output: 0.281 nM

input: Specify reported IC50 against MERSpp for the binder shown: H2aM15279N (antibody, V domains shown) VH: EVQLLESGGGLVQTGGSLRLSCAASGFTFSNYAMSWVRQAPGKGLEWVSAISDRGGSIYYADSVKGRFTISRDNSKNTKYLQMDSLRAEDTAVYYCAQDRGFGVFDYWGQGTLVTVSS VL: DIQMTQSPSSLSASVGDRVTITCQASQDIGNYLNWFQQRPGKAPNLLIYGASNLETGVPSRFSGGGSGTDFTFTISSLQPEDIATYFCQQYDNLPFTFGPGTKVEIK
output: 0.0939 nM

input: Specify reported IC50 against MERSpp for the binder shown: H2aM15271N (antibody, V domains shown) VH: EVQLVESGGALVQPGGSLRLSCAASGFIFGSYEMNWVRQAPGKGLEWLSYISSSGSTIYYADSVKGRFTISRDNAKNSLYLQMNSLRAEDTAVYYCARERGQLGRGGYYYYGMDVWGQGTTVTVSS VL: EIVLTRSPGTLSLSPGERATLSCRASQSVSSSYLAWYHQKPGQAPRLLMYGTSIRATGIPDRFSGSGSGTDFTLTISRLEPEDFAVYYCQQYGSSPPWTFGQGTKVEIK
output: 0.127 nM
